These measurements were taken from PubChem BioAssay (NCI).

Below: a set of entries, each annotated with reported TGI.
system: SNB-19 CNS; assay: NCI tumour cell line growth inhibition, 48 h

Worked examples follow.
## Task # lookup: TGI of `COc1c(Cl)ccc(Cl)c1-c1nnc(-c2c(Cl)c(Cl)c(Cl)c(Cl)c2-c2nc3ccc(C(=O)c4ccccc4)cc3[nH]2)o1`
## Result > 100 µM

## Task Would you kindly share the measured TGI for `COc1ccc(/C=C/C=C2C(=O)NC(=S)NC2=O)cc1` ?
## Result 20 µM

## Task Which value of TGI has been reported for `CC(=N\O)/C(C)=N/O.CC(=N\O)/C(C)=N/O.[Pd]` in the records?
## Result > 10 µM

## Task // lookup TGI for `COc1ccc(/C=N/N=C(N)N)c(C(=O)O)c1OC`
## Result > 100 µM

## Task Consider the compound shown here: `N=C(N)c1ccc(-c2ccc(-c3ccco3)o2)cc1` What is its recorded TGI?
## Result 23.2 µM

## Task Please give the measured TGI for this compound: CCCCCCCCOCC(O)COC (centres undefined)
## Result > 100 µM

## Task Requested read-out: TGI. Entry: `O=C(CCCCCCCCC(=O)OCCCn1cc(C(=O)NC(=O)OCc2ccccc2)c(=O)[nH]c1=O)OCCCn1cc(C(=O)NC(=O)OCc2ccccc2)c(=O)[nH]c1=O`
## Result > 100 µM

## Task Entry `Nc1nc(-c2ccccc2)cc(-c2ccc(F)cc2)c1-c1ccc(Cl)cc1` has what TGI?
## Result > 100 µM

Further cases:
## Task Reported TGI, compound CC(=O)OC1CC[C@@]2(C)C(CC(OC3OC(CO)C(O)C(O)C3O)[C@]3(C)C2CCC24CC23CC[C@H]4C(C)CC(O)[C@@H](O)C(C)(C)O)C1(C)C (some centres undefined) : ____
## Result 38.3 µM
